// provenance: the supplement of paper PMC6757056

B1: library; a variant is named by its letters at N, in order (parent)
chain: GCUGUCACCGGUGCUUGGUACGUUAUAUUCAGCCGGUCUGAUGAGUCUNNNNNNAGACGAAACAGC

Variants of: B1
Experiment: normalized RNA/DNA level with ligand (relative to sTRSVctl = 100) (log10 (% of sTRSVctl)); HEK293T overexpressing SLC46A1; ligand concentration (+) RNA-Seq: 6 mM; higher = less ribozyme self-cleavage, higher mRNA level
Conditions: with (6R,S)-folinic acid; ligand present: yes
measured endpoint: normalized RNA/DNA level with ligand (log10)

INSERT INTO results (mut, data_value) VALUES
  ('GGAGGU', 2.05),
  ('UUUACC', 1.97),
  ('UUUAGC', 2),
  ('GGGUGA', 2.07),
  ('UGUGGU', 2),
  ('ACUCCU', 2.08),
  ('AACACU', 2),
  ('UAGAUU', 2.01),
  ('CGUGAU', 1.99),
  ('CAAAUA', 1.99),
  ('AUGGAC', 1.99),
  ('CUCACA', 2),
  ('CUGUGG', 2.06),
  ('UUCAGU', 2.01),
  ('CCAGGU', 2.05),
  ('AUUUUA', 2.01),
  ('CAAAAU', 1.98),
  ('UCCCUG', 2.03),
  ('AUCCCA', 2.03),
  ('GACAUG', 1.99),
  ('GUUUUG', 2.02),
  ('AGAGUG', 1.98),
  ('GAUGCA', 2.04),
  ('ACAAUA', 2),
  ('AUAAAU', 2.03),
  ('UCCAAU', 1.96),
  ('UCAGCA', 2.06),
  ('GGCGCC', 2.07),
  ('CUUGGU', 2.01),
  ('GUGGAU', 2.01),
  ('GGACUA', 1.97),
  ('CCAUGC', 2.05),
  ('UAACGA', 2.01),
  ('ACAUAU', 2.01),
  ('ACCGUG', 2.01),
  ('GUGCCG', 2.04),
  ('AAGUUA', 2.01),
  ('UACCGA', 2.04),
  ('CGCCAU', 1.98),
  ('UUUAUU', 2.03),
  ('CAAUCA', 2.02),
  ('CCAGUA', 2.05),
  ('UGCGAU', 1.98),
  ('GACGAG', 2.01),
  ('GAGCGA', 2.03),
  ('UCCACA', 2),
  ('GGGCCC', 2.08);
